Molecular target: purified human platelet fibrinogen receptor (GPIIb/IIIa) (Homo sapiens, UniProt P05106+P08514)
Construct: is isolated from human platelet lysates; from tissue
Sequence (P08514 32-887 limits assumed): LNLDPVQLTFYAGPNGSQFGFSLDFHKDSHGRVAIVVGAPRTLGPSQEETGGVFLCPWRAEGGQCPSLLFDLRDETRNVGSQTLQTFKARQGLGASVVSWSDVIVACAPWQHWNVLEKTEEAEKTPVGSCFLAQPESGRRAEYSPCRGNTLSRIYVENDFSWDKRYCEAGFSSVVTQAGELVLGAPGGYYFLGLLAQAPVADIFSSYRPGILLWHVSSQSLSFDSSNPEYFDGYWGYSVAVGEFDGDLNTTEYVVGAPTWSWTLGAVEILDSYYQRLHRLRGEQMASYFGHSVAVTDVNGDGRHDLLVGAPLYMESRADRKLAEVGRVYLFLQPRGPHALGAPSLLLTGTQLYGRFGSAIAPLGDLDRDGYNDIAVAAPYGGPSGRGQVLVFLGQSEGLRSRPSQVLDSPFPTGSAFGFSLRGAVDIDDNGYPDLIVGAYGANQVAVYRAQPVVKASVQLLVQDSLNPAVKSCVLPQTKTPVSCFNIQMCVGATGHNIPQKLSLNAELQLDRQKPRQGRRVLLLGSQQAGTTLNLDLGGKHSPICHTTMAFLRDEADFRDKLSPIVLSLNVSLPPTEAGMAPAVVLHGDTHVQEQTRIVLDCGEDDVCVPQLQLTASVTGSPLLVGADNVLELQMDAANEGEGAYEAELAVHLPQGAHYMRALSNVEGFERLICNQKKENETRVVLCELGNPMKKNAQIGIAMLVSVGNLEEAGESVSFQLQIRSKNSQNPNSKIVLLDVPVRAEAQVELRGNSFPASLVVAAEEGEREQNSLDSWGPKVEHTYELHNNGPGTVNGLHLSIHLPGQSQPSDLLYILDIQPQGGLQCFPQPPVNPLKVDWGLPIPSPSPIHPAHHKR
Sequence (P08514 891-1039 limits assumed): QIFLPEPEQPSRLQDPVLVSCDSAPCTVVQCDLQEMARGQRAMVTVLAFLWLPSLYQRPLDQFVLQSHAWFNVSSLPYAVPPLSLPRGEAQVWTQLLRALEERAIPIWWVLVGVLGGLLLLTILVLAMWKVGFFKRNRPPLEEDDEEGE
Sequence (P05106 27-788): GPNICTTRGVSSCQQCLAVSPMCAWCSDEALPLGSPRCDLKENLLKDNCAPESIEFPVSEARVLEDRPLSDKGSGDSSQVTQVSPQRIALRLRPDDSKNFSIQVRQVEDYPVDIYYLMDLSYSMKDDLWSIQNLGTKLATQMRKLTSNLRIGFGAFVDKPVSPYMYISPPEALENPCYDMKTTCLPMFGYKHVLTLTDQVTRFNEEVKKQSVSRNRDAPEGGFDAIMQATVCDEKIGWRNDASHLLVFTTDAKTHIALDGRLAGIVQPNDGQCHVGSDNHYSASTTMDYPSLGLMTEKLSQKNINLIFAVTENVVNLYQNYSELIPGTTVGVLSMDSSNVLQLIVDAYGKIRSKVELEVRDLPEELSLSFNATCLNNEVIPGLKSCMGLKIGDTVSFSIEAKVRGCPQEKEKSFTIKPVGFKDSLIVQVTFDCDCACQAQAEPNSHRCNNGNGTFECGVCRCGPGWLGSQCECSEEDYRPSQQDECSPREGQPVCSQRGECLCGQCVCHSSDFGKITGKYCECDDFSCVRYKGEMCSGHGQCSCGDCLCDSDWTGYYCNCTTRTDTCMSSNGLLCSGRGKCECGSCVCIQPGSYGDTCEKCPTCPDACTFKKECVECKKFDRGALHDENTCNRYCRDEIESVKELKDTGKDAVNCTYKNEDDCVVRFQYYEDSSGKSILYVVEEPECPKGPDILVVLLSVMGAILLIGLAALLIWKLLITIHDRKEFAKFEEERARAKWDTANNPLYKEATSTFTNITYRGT
Assay: Test (b): GPIIb/IIIa ELISA, inhibition of biotinylated fibrinogen binding
Conditions: purified human platelet GPIIb/IIIa, ELISA; read-out: Test (b): pIC50 (-log(IC50)), 50% inhibition of biotinylated fibrinogen binding to GPIIb/IIIa (converted)
Protocol: (i) Preparation of human platelet lysates. […] 96 well microtitre plates are coated with 100 μl purified human platelet fibrinogen receptor (GPIIb/IIIa) diluted in coating buffer (Tris-HCl 20 mM, NaCl 150 mM, CaCl2 1 mM, pH 7.4) and left overnight at 4° C. […] Colour is allowed to develop for 10-15 mins before optical densities are read at 650 nm. […]
Structures can show the parent of a compound that is named as a salt.
Binary label based on IC50 with cut-off 30 nM: below gives Satisfied, not below gives Not satisfied.

Answered cases to consult:
• COC(=O)COc1cc(OCC(=O)OC)cc(C(=O)CN2CCN(c3ccncc3)CC2)c1 = Not satisfied
• O=C(O)c1ccc(Oc2ccc(N3CCN(c4ccncc4)CC3)cc2)nc1 = Not satisfied
• O=C(O)COc1ccc(C(=O)CN2CCN(c3ccncc3)CC2=O)cc1 = Satisfied
• CCOC(=O)C=CCOc1ccc(N2CCN(c3ccncc3)CC2)cc1 = Not satisfied
• CCCCS(=O)(=O)N[C@@H](Cc1ccc(OCCCCC2CCN(c3ccncc3)CC2)cc1)C(=O)OC = Not satisfied

QUERY: Please check: IC50 for `O=C(O)COc1ccc(NC(=O)N2CCN(c3ccncc3)CC2)cc1` , strictly under 30 nM or not?
RESULT: Satisfied

QUERY: Would you kindly repeat that for `O=C(O)CCNC(=O)c1ccc(N2CCN(c3ccncc3)CC2)nc1` ?
RESULT: Satisfied

QUERY: Would you kindly repeat that for `O=C(O)COc1ccc(C(=O)CN2CCN(c3ccnc4c3CCCC4)CC2)cc1` ?
RESULT: Satisfied

QUERY: Would you kindly repeat that for `O=C(N[C@@H](Cc1ccc(OCCC2CCN(c3ccncc3)CC2)cc1)C(=O)O)OCc1ccccc1` ?
RESULT: Satisfied

QUERY: Would you kindly repeat that for `COC(=O)CCc1ccc(C(=O)CN2CCN(c3ccncc3)CC2)cc1` ?
RESULT: Not satisfied

QUERY: Would you kindly repeat that for `CCCCS(=O)(=O)N[C@H](Cc1ccc(OCC2CCN(c3ccncc3)CC2)cc1)C(=O)O` ?
RESULT: Not satisfied

QUERY: Would you kindly repeat that for O=C(O)COc1c(Cl)cc(C(=O)CN2CCN(c3ccncc3)CC2)cc1Cl [Example 123, dihydrochloride] ?
RESULT: Not satisfied

QUERY: Would you kindly repeat that for `CCCCS(=O)(=O)N[C@@H](Cc1ccc(OCCCCC2CCN(c3ccncc3)CC2)cc1)C(=O)O` ?
RESULT: Satisfied

QUERY: Would you kindly repeat that for `CC(C)(C)c1cc(C(=O)CN2CCN(c3ccncc3)CC2)cc(C(C)(C)C)c1OCC(=O)O` ?
RESULT: Not satisfied

QUERY: Would you kindly repeat that for `CCCCC(=O)N[C@@H](Cc1ccc(OCCC2CCN(c3ccncc3)CC2)cc1)C(=O)OC` ?
RESULT: Not satisfied

QUERY: Would you kindly repeat that for `COC(=O)COc1ccc(C(=O)CN2CCN(c3cc(C)nc4ccccc34)CC2)cc1` ?
RESULT: Not satisfied

QUERY: Would you kindly repeat that for `COC(=O)[C@H](Cc1ccc(OCCC2CCN(c3ccncc3)CC2)cc1)NS(C)(=O)=O` ?
RESULT: Not satisfied
